Test system: Pseudo. Aeru 28
Assay: Minimal Inhibitory Concentration, Pseudo. Aeru 28
Type: cell-based
measured.quantity: MIC (µg/mL)

> print(dat)
                                   compound  measured.quantity  assay.value
1  CC1(C)S[C@@H]2[C@H](NC(=O)[C@H](NC(=O)c3cc4cc(NC(=O)NCC(N)=O)ccc4[nH]c3=O)c3ccc(O)cc3)C(=O)N2[C@H]1C(=O)O                MIC          0.8
2  CCNC(=O)Nc1ccc2[nH]c(=O)c(C(=O)N[C@@H](C(=O)N[C@@H]3C(=O)N4[C@@H]3SC(C)(C)[C@@H]4C(=O)O)c3ccc(O)cc3)cc2c1 [A CH3 CH2]                MIC          0.4
3  CCOC(=O)CNC(=O)Nc1ccc2[nH]c(=O)c(C(=O)N[C@@H](C(=O)N[C@@H]3C(=O)N4[C@@H]3SC(C)(C)[C@@H]4C(=O)O)c3ccc(O)cc3)cc2c1                MIC          3.1
4  CCNC(=O)Nc1ccc2[nH]cc(C(=O)N[C@@H](C(=O)N[C@@H]3C(=O)N4[C@@H]3SC(C)(C)[C@@H]4C(=O)O)c3ccc(O)cc3)c(=O)c2c1 [B CH3 CH2]                MIC          0.8
5  CCNC(=O)CNC(=O)Nc1ccc2[nH]c(=O)c(C(=O)N[C@@H](C(=O)N[C@@H]3C(=O)N4[C@@H]3SC(C)(C)[C@@H]4C(=O)O)c3ccc(O)cc3)cc2c1                MIC          1.6

---

Record type: MIC measurement. Applies to: E. Coli Brig
measured.quantity: MIC (µg/mL)

> print(dat)
                                   compound  assay.value
1  CC1(C)S[C@@H]2[C@H](NC(=O)[C@H](NC(=O)c3cc4cc(NC(=O)NCC(N)=O)ccc4[nH]c3=O)c3ccc(O)cc3)C(=O)N2[C@H]1C(=O)O          6.3
2  CCOC(=O)CNC(=O)Nc1ccc2[nH]c(=O)c(C(=O)N[C@@H](C(=O)N[C@@H]3C(=O)N4[C@@H]3SC(C)(C)[C@@H]4C(=O)O)c3ccc(O)cc3)cc2c1         12.5
3  CCNC(=O)Nc1ccc2[nH]c(=O)c(C(=O)N[C@@H](C(=O)N[C@@H]3C(=O)N4[C@@H]3SC(C)(C)[C@@H]4C(=O)O)c3ccc(O)cc3)cc2c1 [A CH3 CH2]          3.1
4  CCNC(=O)CNC(=O)Nc1ccc2[nH]c(=O)c(C(=O)N[C@@H](C(=O)N[C@@H]3C(=O)N4[C@@H]3SC(C)(C)[C@@H]4C(=O)O)c3ccc(O)cc3)cc2c1          6.3
5  CCNC(=O)Nc1ccc2[nH]cc(C(=O)N[C@@H](C(=O)N[C@@H]3C(=O)N4[C@@H]3SC(C)(C)[C@@H]4C(=O)O)c3ccc(O)cc3)c(=O)c2c1 [B CH3 CH2]          6.3

---

Tested on: Pseudo. Aeru UI-18
Assay: Minimal Inhibitory Concentration, Pseudo. Aeru UI-18
Type: cell-based
Recorded MIC by entry
measured.quantity: MIC (µg/mL)

> print(dat)
                                   compound  assay.value
1  CCNC(=O)CNC(=O)Nc1ccc2[nH]c(=O)c(C(=O)N[C@@H](C(=O)N[C@@H]3C(=O)N4[C@@H]3SC(C)(C)[C@@H]4C(=O)O)c3ccc(O)cc3)cc2c1          1.6
2  CCOC(=O)CNC(=O)Nc1ccc2[nH]c(=O)c(C(=O)N[C@@H](C(=O)N[C@@H]3C(=O)N4[C@@H]3SC(C)(C)[C@@H]4C(=O)O)c3ccc(O)cc3)cc2c1          3.1
3  CCNC(=O)Nc1ccc2[nH]cc(C(=O)N[C@@H](C(=O)N[C@@H]3C(=O)N4[C@@H]3SC(C)(C)[C@@H]4C(=O)O)c3ccc(O)cc3)c(=O)c2c1 [B CH3 CH2]          3.1
4  CC1(C)S[C@@H]2[C@H](NC(=O)[C@H](NC(=O)c3cc4cc(NC(=O)NCC(N)=O)ccc4[nH]c3=O)c3ccc(O)cc3)C(=O)N2[C@H]1C(=O)O          1.6
5  CCNC(=O)Nc1ccc2[nH]c(=O)c(C(=O)N[C@@H](C(=O)N[C@@H]3C(=O)N4[C@@H]3SC(C)(C)[C@@H]4C(=O)O)c3ccc(O)cc3)cc2c1 [A CH3 CH2]          1.6
